Each recorded value in this set is attributed to paper PMC12416549.

- Assay System: T1, TNFR1 (Homo sapiens, UniProt P19438)
- T1 chain: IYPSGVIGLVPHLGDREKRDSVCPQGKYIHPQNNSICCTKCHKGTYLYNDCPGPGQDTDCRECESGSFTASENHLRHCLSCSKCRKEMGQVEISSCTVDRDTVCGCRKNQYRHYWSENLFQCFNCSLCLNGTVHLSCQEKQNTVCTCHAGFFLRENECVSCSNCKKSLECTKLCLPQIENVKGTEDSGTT
- Protocol Text: yeast display SC50
Metric: apparent Kd (screen) (pM)
Could you give me the number in pM? Just the number is fine.

Binder	Scale Unit	apparent Kd (screen)
L74N (designed binder) MTLQELLREEALRRAEAEAFRYALELLAEKFPEQKEYLLDLAEEIESQIRSLSGVDVEDVRKFLDKEWAWVKENLAEHPAELAEVEAARAARLAELRAEVEAKVAA	pM	1270
A87L (designed binder) MTLQELLREEALRRAEAEAFRYALELLAEKFPEQKEYLLDLAEEIESQIRSLSGVDVEDVRKFLDKEWAWVKELLAEHPAELAEVELARAARLAELRAEVEAKVAA	pM	653
R13G (designed binder) MTLQELLREEALGRAEAEAFRYALELLAEKFPEQKEYLLDLAEEIESQIRSLSGVDVEDVRKFLDKEWAWVKELLAEHPAELAEVEAARAARLAELRAEVEAKVAA	pM	252

Now look at this one.
[Q] For the binder shown here, E84I (designed binder) MTLQELLREEALRRAEAEAFRYALELLAEKFPEQKEYLLDLAEEIESQIRSLSGVDVEDVRKFLDKEWAWVKELLAEHPAELAIVEAARAARLAELRAEVEAKVAA , give the reported apparent Kd (screen).
[A] 869
